# target or system: human P2X3 receptor (Homo sapiens (Human), UniProt P56373)
# Sequence (P56373 whole entry): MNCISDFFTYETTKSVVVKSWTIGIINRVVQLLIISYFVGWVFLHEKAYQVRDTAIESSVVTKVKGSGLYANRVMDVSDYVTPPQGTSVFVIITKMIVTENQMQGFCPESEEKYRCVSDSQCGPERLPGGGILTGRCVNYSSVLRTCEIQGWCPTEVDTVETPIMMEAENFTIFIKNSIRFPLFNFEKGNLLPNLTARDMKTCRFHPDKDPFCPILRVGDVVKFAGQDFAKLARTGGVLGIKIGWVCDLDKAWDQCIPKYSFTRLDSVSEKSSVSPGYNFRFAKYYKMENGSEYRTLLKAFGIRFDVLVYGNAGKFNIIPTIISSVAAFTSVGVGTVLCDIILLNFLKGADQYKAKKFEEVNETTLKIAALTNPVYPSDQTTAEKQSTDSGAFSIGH
# measurement description: P2X3 receptor inhibition, ATP-evoked Fluo-3 calcium fluorescence (FDSS 3000)
# run conditions: C6BU-1 cell transfected with human P2X3 receptor gene; ATP-evoked Fluo-3 fluorescence
# Method: Stably expressing cell line (C6BU-1 cell transfected with human P2X3 receptor gene (GenBank accession number Y07683)) was used. […] Five minutes after, 40 nM ATP solution (50 μL) prepared by dilution with the dilution buffer was dispensed through the built-in automatic dispenser, and the measurement of fluorescence intensity was continued for 3 min. […] FDSS software (Hamamatsu Photonics K.K.) was used for calculation of the specific maximum fluorescence intensity. […]
pIC50: −log10 of the molar value.
reported metric: pIC50

[[record]]
compound = "COCCCOc1ncccc1C1C(C(=O)C(C)C)=C(O)C(=O)N1c1ccc(-c2ccoc2)cc1 (stereo not shown)"
reported_metric = "pIC50"
recorded_number = 7.24

[[record]]
compound = "CC(C)c1n[nH]c2c1C(c1cccnc1OCCO)N(c1ccc(-c3ccsc3)cc1)C2=O (stereo not shown)"
reported_metric = "pIC50"
recorded_number = 7.80

[[record]]
compound = "COCCOc1ccccc1C1C(C(=O)C(C)C)=C(O)C(=O)N1c1ccc(-c2ccoc2)cc1 (stereo not shown)"
reported_metric = "pIC50"
recorded_number = 7.41

[[record]]
compound = "COc1ccccc1C1c2c(C(C)(C)C)n[nH]c2C(=O)N1c1ccc(C(C)(C)O)cc1 (stereo not shown)"
reported_metric = "pIC50"
recorded_number = 6.19

[[record]]
compound = "Cc1nc(-c2ccc(N3C(=O)C(O)=C(C(=O)C(C)C)C3c3ccccc3OCCCO)cc2)no1 (stereo not shown)"
reported_metric = "pIC50"
recorded_number = 6.76

[[record]]
compound = "COc1ccc(C(=O)C2=C(O)C(=O)N(c3ccc(-c4cccn4C)cc3)C2C2CCCCC2)cc1 (stereo not shown)"
reported_metric = "pIC50"
recorded_number = 6.87

[[record]]
compound = "CC(C)(C)C(=O)C1=C(O)C(=O)N(c2ccc(-c3ccsc3)cc2)C1c1ccccc1OCC#N (stereo not shown)"
reported_metric = "pIC50"
recorded_number = 8.30

[[record]]
compound = "CC(C)(C)c1n[nH]c2c1C(c1cccc[n+]1[O-])N(c1ccc(-c3ccon3)cc1)C2=O (stereo not shown)"
reported_metric = "pIC50"
recorded_number = 6.31

[[record]]
compound = "CSc1ccc(N2C(=O)C(O)=C(C(=O)C(C)C)C2c2ccccc2OC(C)C)cc1 (stereo not shown)"
reported_metric = "pIC50"
recorded_number = 7.15

[[record]]
compound = "Cc1nc(-c2ccc(N3C(=O)C(O)=C(C(=O)C4CCCC4)C3c3ccccc3OC(C)C)cc2)no1 (stereo not shown)"
reported_metric = "pIC50"
recorded_number = 7.06

[[record]]
compound = "COCCCOc1ncccc1C1C(C(=O)C(C)C)=C(O)C(=O)N1c1ccc(-c2ccsc2)cc1 (stereo not shown)"
reported_metric = "pIC50"
recorded_number = 7.89

[[record]]
compound = "CC(C)CC(=O)C1=C(O)C(=O)N(c2ccc(-c3ccsc3)cc2)C1c1ccccc1N1CCOCC1 (stereo not shown)"
reported_metric = "pIC50"
recorded_number = 8.30

[[record]]
compound = "CC(C)C(=O)C1=C(O)C(=O)N(c2ccc(-c3ccsc3)cc2)C1c1cccnc1N1CCOCC1 (stereo not shown)"
reported_metric = "pIC50"
recorded_number = 7.74

[[record]]
compound = "Cc1nc(-c2ccc(N3C(=O)C(O)=C(C(=O)C(C)C)C3c3ccccc3OCC3OCCO3)cc2)no1 (stereo not shown)"
reported_metric = "pIC50"
recorded_number = 7.28

[[record]]
compound = "Cc1ncccc1C1C(C(=O)C(C)(C)C)=C(O)C(=O)N1c1ccc(-c2cccs2)cc1 (stereo not shown)"
reported_metric = "pIC50"
recorded_number = 6.46

[[record]]
compound = "Cc1ncccc1C1c2c(C(C)(C)C)n[nH]c2C(=O)N1c1ccc(-c2cccs2)cc1 (stereo not shown)"
reported_metric = "pIC50"
recorded_number = 6.33


###

Listed here are molecules together with their documented IC50.
# target or system: human P2X3 receptor (Homo sapiens (Human), UniProt P56373)
# measurement description: P2X3 receptor inhibition, ATP-evoked Fluo-3 calcium fluorescence (FDSS 3000)
# run conditions: C6BU-1 cell transfected with human P2X3 receptor gene; ATP-evoked Fluo-3 fluorescence
reported metric: IC50

[[record]]
molecule = "COCCOc1ccccc1C1C(C(=O)C(C)C)=C(O)C(=O)N1c1ccc(-c2ccco2)cc1 (stereo not shown)"
result = "23 nM"

[[record]]
molecule = "COCCCOc1ncccc1C1C(C(=O)C(C)C)=C(O)C(=O)N1c1ccc(-c2csc(C)c2)cc1 (stereo not shown)"
result = "60 nM"

[[record]]
molecule = "CN(C)CCOc1ccccc1C1C(C(=O)C(C)(C)C)=C(O)C(=O)N1c1ccc(-c2ccon2)cc1 (stereo not shown)"
result = "615 nM"

[[record]]
molecule = "COCCOc1ccccc1C1C(C(=O)C(C)C)=C(O)C(=O)N1c1ccc(-c2ccsc2)cc1 (stereo not shown)"
result = "7 nM"

[[record]]
molecule = "COCCOc1cc(F)ccc1C1C(C(=O)CC(C)C)=C(O)C(=O)N1c1ccc(-c2ccsc2)cc1 (stereo not shown)"
result = "9 nM"

[[record]]
molecule = "COCCOc1ccccc1C1C(C(=O)CC(C)C)=C(O)C(=O)N1c1ccc(SC(F)(F)F)cc1 (stereo not shown)"
result = "338 nM"

[[record]]
molecule = "COCCOc1ncccc1C1c2c(C(C)(C)C)n[nH]c2C(=O)N1c1ccc(-c2ccoc2)cc1 (stereo not shown)"
result = "14 nM"


###

# target or system: UniProt P56373
# measurement description: P2X3 receptor inhibition, ATP-evoked Fluo-3 calcium fluorescence (FDSS 3000)
# run conditions: C6BU-1 cell transfected with human P2X3 receptor gene; ATP-evoked Fluo-3 fluorescence
pIC50: −log10 of the molar value.
reported metric: pIC50

[[record]]
compound = "CC(C)C(=O)C1=C(O)C(=O)N(c2ccc(-c3ccsc3)cc2)C1c1ccccc1C(F)(F)F (stereo not drawn)"
recorded_number = 6.94

[[record]]
compound = "COCCOc1ccccc1C1C(C(=O)CC(C)C)=C(O)C(=O)N1c1ccc(-c2ccon2)cc1 (stereo not drawn)"
recorded_number = 6.74

[[record]]
compound = "COCc1ncccc1C1c2c(C(C)C)n[nH]c2C(=O)N1c1ccc(-c2ccsc2)cc1 (stereo not drawn)"
recorded_number = 6.94

[[record]]
compound = "Cc1nc(-c2ccc(N3C(=O)C(O)=C(C(=O)CC(C)C)C3c3ccccc3N3CCOCC3)cc2)no1 (stereo not drawn)"
recorded_number = 7.17

[[record]]
compound = "Cc1cc(-c2ccc(N3C(=O)C(O)=C(C(=O)CC(C)C)C3c3ccccc3C(=O)N3CCOCC3)cc2)cs1 (stereo not drawn)"
recorded_number = 6.77

[[record]]
compound = "COCCOc1cc(F)ccc1C1C(C(=O)CC(C)C)=C(O)C(=O)N1c1ccc(-c2ccoc2)cc1 (stereo not drawn)"
recorded_number = 7.80

[[record]]
compound = "COc1ccccc1C1C(C(=O)C(C)(C)C)=C(O)C(=O)N1c1ccc(-c2cscc2C)cc1 (stereo not drawn)"
recorded_number = 6.00

[[record]]
compound = "COC(=O)COc1ccccc1C1C(C(=O)C(C)(C)C)=C(O)C(=O)N1c1ccc(-c2ccsc2)cc1 (stereo not drawn)"
recorded_number = 7.92

[[record]]
compound = "Cc1cc(-c2ccc(N3C(=O)C(O)=C(C(=O)CC(C)C)C3c3ccccc3OC(C)C)cc2)cs1 (stereo not drawn)"
recorded_number = 7.29

[[record]]
compound = "COc1ccccc1C1C(C(=O)C(C)(C)C)=C(O)C(=O)N1c1ccc(C(C)C)cc1 (stereo not drawn)"
recorded_number = 6.02

[[record]]
compound = "CC(C)(C)c1n[nH]c2c1C(c1ccccc1OCCO)N(c1ccc(-c3ccsc3)cc1)C2=O (stereo not drawn)"
recorded_number = 8.52

[[record]]
compound = "COc1ncccc1C1c2c(C(C)(C)C)n[nH]c2C(=O)N1c1ccc(-c2ccco2)cn1 (stereo not drawn)"
recorded_number = 6.97

[[record]]
compound = "COc1ccccc1C1c2c(C(C)(C)C)n[nH]c2C(=O)N1c1ccc(CN(C)C)cc1 (stereo not drawn)"
recorded_number = 6.13

[[record]]
compound = "COCc1ccccc1[C@@H]1C(C(=O)C(C)C)=C(O)C(=O)N1c1ccc(-c2ccc(C)s2)cc1"
recorded_number = 7.82

[[record]]
compound = "CC(C)(C)c1n[nH]c2c1C(c1ccccc1OC(F)(F)F)N(c1ccc(-c3ccon3)cc1)C2=O (stereo not drawn)"
recorded_number = 6.78


###

# target or system: UniProt:P56373
# measurement description: P2X3 receptor inhibition, ATP-evoked Fluo-3 calcium fluorescence (FDSS 3000)
# run conditions: C6BU-1 cell transfected with human P2X3 receptor gene; ATP-evoked Fluo-3 fluorescence
pIC50: −log10 of the molar value.
Reported values of pIC50 for individual entries
reported metric: pIC50

[[record]]
molecule = "COCCOc1ncccc1C1C(C(=O)C(C)C)=C(O)C(=O)N1c1ccc(-c2ccoc2)cc1 (stereo not shown)"
reported_metric = "pIC50"
recorded_number = 7.25

[[record]]
molecule = "Cc1ccc(-c2ccc(N3C(=O)C(O)=C(C(=O)CC(C)C)C3c3ccccc3OC(F)F)cc2)s1 (stereo not shown)"
reported_metric = "pIC50"
recorded_number = 6.99

[[record]]
molecule = "COc1ccccc1C1c2c(C(C)(C)C)n[nH]c2C(=O)N1c1ccc(-c2cccs2)cn1 (stereo not shown)"
reported_metric = "pIC50"
recorded_number = 7.74

[[record]]
molecule = "CC(C)(C)C(=O)C1=C(O)C(=O)N(c2ccc(-c3ccon3)cc2)C1c1ccccc1OC(F)F (stereo not shown)"
reported_metric = "pIC50"
recorded_number = 6.86

